- System: SF-295 CNS
- assaySummary: NCI-60 one-dose screen, 48 h (100 = growth as untreated, 0 = no growth, -100 = all killed)
- conditionContext: 10 µM unless noted
Compounds without any hit were thinned out: in the full panel of roughly 83,000, 20% have a hit. Active and inactive are the calls of the source. How the source made its calls: active means growth percent below 10; inactive means the rest.
assayMetric: growth

Example cases with answers are listed next.
1. O=C(Nc1ccc(F)cc1)ON=C1CCCCC1    100% [100 µM] (inactive)
2. O=C(/C=C\c1cc(Br)ccc1O)/C=C/c1cc(Br)ccc1O    -1.61% (active)
3. CN(C)c1ccc(/C=N/N=C(\C#N)[S][Sn]([Cl])([c]2ccccc2)[c]2ccccc2)cc1    107% (inactive)
4. Nc1ccc(SSc2ccc(N)cc2)cc1    82.6% (inactive)
5. O=C1OCc2cccc3cccc1c23    102% (inactive)

# evaluate next
In plain terms, O[C@H]1[C@H]2c3cc4c(cc3CN3CCC(=C[C@@H]1O)[C@H]23)OCO4 has a documented growth of 34% (inactive)
